Attribution: ChEMBL document CHEMBL1130791

ASSAYED_TARGET: Human immunodeficiency virus type 1 protease (Human immunodeficiency virus 1)
ASSAY_METHOD_TEXT: Inhibitory activity against HIV-1 protease using scintillation proximity assay (SPA assay)
MEASURED_QUANTITY: log10 IC50 (log10 of the value in nM)

> print(dat)
                            structure.smiles  value.measured
 1  CC(C)(C)NC(=O)c1ccccc1OC[C@@H](O)[C@H](Cc1ccccc1)NC(=O)[C@H](CC(N)=O)NC(=O)c1ccc2c(c1)S(=O)(=O)c1ccccc1C2=O            1.64
 2  CC(C)(C)NC(=O)c1ccccc1NC[C@@H](O)[C@H](Cc1ccccc1)NC(=O)[C@H](CC(N)=O)NC(=O)c1ccc2ccccc2n1            1.97
 3  CC(C)(C)NC(=O)c1ccccc1OC[C@H](O)[C@H](Cc1ccccc1)NC(=O)[C@H](CC(N)=O)NC(=O)c1ccc2c(c1)C(=O)c1ccccc1C2=O            1.95
 4  CC(C)(C)NC(=O)c1ccccc1SC[C@H](O)[C@H](Cc1ccccc1)NC(=O)[C@H](CC(N)=O)NC(=O)c1ccc2ccccc2c1            2.59
 5  CC(C)(C)NC(=O)c1ccccc1OC[C@@H](O)[C@H](Cc1ccccc1)NC(=O)[C@H](CC(N)=O)NC(=O)c1cnnc2ccccc12            2.11
 6  CC(C)(C)NC(=O)c1ccccc1SC[C@@H](O)[C@H](Cc1ccccc1)NC(=O)[C@H](CC(N)=O)NC(=O)c1ccc2ccccc2n1            1.95
 7  CC(C)(C)NC(=O)c1ccccc1OC[C@@H](O)[C@H](Cc1ccccc1)NC(=O)[C@H](CC(N)=O)NC(=O)c1ccc2ccccc2n1            1.65
 8  CC(C)(C)NC(=O)c1ccccc1OC[C@H](O)[C@H](Cc1ccccc1)NC(=O)[C@H](CC(N)=O)NC(=O)c1cnc2ccccc2n1            2.00
 9  CC(C)(C)NC(=O)c1ccccc1OC[C@H](O)[C@H](Cc1ccccc1)NC(=O)[C@H](CC(N)=O)NC(=O)c1cnnc2ccccc12            2.70
10  CC(C)(C)NC(=O)c1ccccc1OC[C@H](O)[C@H](Cc1ccccc1)NC(=O)[C@H](CC(N)=O)NC(=O)c1cc(O)c2ccccc2n1            2.61
11  CC(C)(C)NC(=O)c1ccccc1OC[C@@H](O)[C@H](Cc1ccccc1)NC(=O)[C@H](CC(N)=O)NC(=O)c1ccc2c(c1)C(=O)c1ccccc1C2=O            1.61
12  CC(C)(C)NC(=O)c1c(OC[C@@H](O)[C@H](Cc2ccccc2)NC(=O)[C@H](CC(N)=O)NC(=O)c2ccc3c(c2)C(=O)c2ccccc2C3=O)ccc2ccccc12            1.79
13  CC(C)(C)NC(=O)c1c(OC[C@@H](O)[C@H](Cc2ccccc2)NC(=O)[C@H](CC(N)=O)NC(=O)c2ccc3c(c2)S(=O)(=O)c2ccccc2C3=O)ccc2ccccc12            1.78
14  CC(C)(C)NC(=O)c1ccccc1OC[C@@H](O)[C@H](Cc1ccccc1)NC(=O)[C@H](CC(N)=O)NC(=O)c1cnc2ccccc2n1            1.80
